Source listed as ChEMBL document CHEMBL3046811.

Listed compounds paired with reported CC50
run_description: Cytotoxicity against Chlorocebus aethiops (African green monkey) Vero 76 cells assessed as inhibition of cell viability after 48 to 120 hr by MTT assay
Type: cell-based
conditions: chlorocebus sabaeus

Example results:
In [3]: df
Out[3]:
                                        mol  experimental_readout  reported_measurement
0    Clc1ccccc1-c1nnc2nnc3c4ccccc4[nH]c3n12                  CC50              > 100 µM
1  COc1cc(-c2nnc3nnc4c5ccccc5[nH]c4n23)ccc1O                  CC50                 80 µM
2  Brc1cccc(-c2nnc3nnc4c5ccccc5[nH]c4n23)c1                  CC50              > 100 µM
3  O=[N+]([O-])c1ccccc1-c1nnc2nnc3c4ccccc4[nH]c3n12                  CC50              > 100 µM
4   Fc1ccc(-c2nnc3nnc4c5ccccc5[nH]c4n23)cc1                  CC50              > 100 µM

Now consider a different compound.
[in] Tell me its CC50 given Oc1ccccc1-c1nnc2nnc3c4ccccc4[nH]c3n12 as the entry.
[out] 70 µM

* * *

Test system: Coxsackievirus B2
run_description: Antiviral activity against Human coxsackievirus B2 infected in African green monkey Vero 76 cells assessed as reduction in plaque number treated after viral infection measured after 3 days by plaque reduction assay
Format: functional, organism-based
conditions: Enterovirus B, 72 h
Listed molecules paired with reported EC50

Example results:
>>> df
                                        mol  experimental_readout  reported_measurement
0  Clc1cccc(-c2nnc3nnc4c5ccccc5[nH]c4n23)c1                  EC50               > 60 µM
1  O=[N+]([O-])c1ccccc1-c1nnc2nnc3c4ccccc4[nH]c3n12                  EC50                100 µM
2  O=[N+]([O-])c1ccc(-c2nnc3nnc4c5ccccc5[nH]c4n23)cc1                  EC50              > 100 µM

Now consider a different molecule.
[in] Tell me its EC50 given C#C[C@@]1(O)[C@H](O)[C@@H](CO)O[C@H]1n1ccc(N)nc1=O as the entry.
[out] 23 µM

* * *

Listed compounds paired with reported EC50
Tested on: Bovine viral diarrhea virus 1
run_description: Antiviral activity against Bovine viral diarrhea virus 1 infected bovine MDBK cells assessed as protection against virus-induced cytopathogenicity treated 1 hr after viral infection measured after 3-4 days by MTT method
Format: functional, organism-based
conditions: Bovine viral diarrhea virus isolates and strains

>>> df
                                        mol  experimental_readout  reported_measurement
0  O=[N+]([O-])c1cccc(-c2nnc3nnc4c5ccccc5[nH]c4n23)c1                  EC50              > 100 µM

[in] Tell me its EC50 given c1ccc2c(-c3nnc4nnc5c6ccccc6[nH]c5n34)c3ccccc3cc2c1 as the entry.
[out] 3 µM

[in] Tell me its EC50 given COc1ccccc1-c1nnc2nnc3c4ccccc4[nH]c3n12 as the entry.
[out] > 17 µM

[in] Tell me its EC50 given CSc1ccc(-c2nnc3nnc4c5ccccc5[nH]c4n23)cc1 as the entry.
[out] > 100 µM

[in] Tell me its EC50 given Oc1ccccc1-c1nnc2nnc3c4ccccc4[nH]c3n12 as the entry.
[out] > 100 µM

[in] Tell me its EC50 given O=[N+]([O-])c1ccccc1-c1nnc2nnc3c4ccccc4[nH]c3n12 as the entry.
[out] > 100 µM
